tested on: 786-0 renal; assay: NCI tumour cell line growth inhibition, 48 h
property_label: TGI

INSERT INTO results (compound, result) VALUES
  ('Nc1ccc(OCCCc2c(-c3ccccc3)nc(N)[nH]c2=O)cc1', '> 100 µM'),
  ('O=C1CCC2(c3ccccc3)Nc3ccc(Cl)cc3N12 (configuration not stated)', '> 100 µM'),
  ('CN=C(NC)N(C)c1nc(=[N+](C)C)ss1', '> 100 µM'),
  ('COC(=O)c1ccc(C)cc1CC1Cc2c(C)cccc2C1=O (configuration not stated)', '34.8 µM'),
  ('O=C1CCCC2=C1CC1=C(CCCC1=O)N2c1cccc([N+](=O)[O-])c1', '> 100 µM'),
  ('CN1C(=O)C(=CN(C)c2ccccc2)C(=O)N(C)C1=O', '> 100 µM'),
  ('Clc1ccc(C2=NOC3C4CCC(C4)C23)cc1 (configuration not stated)', '> 100 µM'),
  ('CC1=C/C(=C2/N=C(N(C)C)SS2)C(C)=N1', '> 100 µM'),
  ('Cc1cc2c(=O)cc(-c3ccc(F)cc3)oc2c(C(=O)O)c1C', '> 100 µM'),
  ('CN(C)c1ccc(C(=C2C=CC(=[N+](C)C)C=C2)c2ccccc2Cl)cc1', '1.13 µM'),
  ('CNCCCn1c2c(c3ccc(F)cc3c1=O)C(=O)c1cc(OC)cnc1-2', '0.658 µM'),
  ('O=C(Sc1sc(=S)sc1SC(=O)c1ccccc1)c1ccccc1', '> 100 µM'),
  ('Cc1cc2c(=O)[nH]c(N)nc2nc1C', '> 100 µM'),
  ('CC1(C)N=C(N)N=C(N)N1c1ccc(Cl)c(Cl)c1', '> 100 µM'),
  ('Oc1ccccc1-c1nn2c(CCCCCCCCc3nnc4sc(-c5ccccc5O)nn34)nnc2s1', '> 100 µM'),
  ('Cc1ccc(S(=O)(=O)N2CCCSCCN(S(=O)(=O)c3ccc(C)cc3)CCCSCC2)cc1', '> 100 µM'),
  ('CCOC(=O)N1N(c2ccccc2)C(=O)C1(c1ccccc1)c1ccccc1', '> 100 µM'),
  ('O=S(=O)(NCCO)c1cc[c]([Sb](=[O])([OH])[OH])cc1', '> 100 µM'),
  ('C=CCN1C[C@@H](C)N([C@@H](c2ccc(C(=O)N(CC)CC)cc2)c2cccc(OC)c2)C[C@@H]1C', '> 100 µM'),
  ('CC(=O)OC1[C@@H](OC(C)=O)CN(OCc2ccccc2)C[C@H]1OC(C)=O (some centres not stated)', '> 100 µM'),
  ('COc1cc2c(cc1O)C(c1cc(O)c(O)c(OC)c1)C(O)(C(=O)O)C(CO)C2O (configuration not stated)', '30.5 µM'),
  ('Oc1c2c(c(O)c3ccccc13)C1(N=N2)c2ccccc2Oc2ccccc21', '11.5 µM'),
  ('CCCCc1c2c(nc3c1CC/C(=C\c1ccc([N+](=O)[O-])cc1)C3=O)CCCC2', '2.77 µM'),
  ('C=CCn1c(-c2ccc(Cl)cc2Cl)csc1=Nc1c(C)n(C)n(-c2ccccc2)c1=O', '26.7 µM'),
  ('Cc1cc(C)c2c(=O)cc(-c3ccc4ccccc4c3)[nH]c2n1', '> 100 µM'),
  ('Cc1ccc(C)c2c(N=Nc3ccccc3[N+](=O)[O-])c(O)[nH]c12', '> 100 µM'),
  ('CCCCN1C(=O)CS/C1=N/Nc1nc2c([nH]1)c(=O)n(C)c(=O)n2C', '41.7 µM'),
  ('Cc1cn2c(/C=N/N=C(N)N)c(-c3ccsc3)nc2s1', '19.7 µM'),
  ('Brc1ccc(C2SCc3nc4ccccc4n32)cc1 (configuration not stated)', '26 µM'),
  ('Cc1nnc([C@@]2(C)CC[C@H]3[C@@H](CCC4=CC(=O)CC[C@@]43C)[C@@H]2CC#N)o1', '> 100 µM'),
  ('N=C(N)SCc1ccc([N+](=O)[O-])cc1[N+](=O)[O-]', '27.8 µM'),
  ('COc1cc2cc(C(=O)N3CC(CCl)c4c3cc(O)c3ccccc43)[nH]c2c(OC)c1OC (configuration not stated)', '0.506 µM'),
  ('COc1ccc(Oc2cc(NCCC(F)(F)F)c3ncc(-c4ccc(C(=O)NC5CC5)c(C)c4)n3n2)c(F)c1F', '> 52.3 µM'),
  ('O[C@H]1[C@H](O)[C@@H](Cn2nnc(-c3ccccc3)c2-c2ccccc2)OCO[C@@H]1Cn1nnc(-c2ccccc2)c1-c1ccccc1', '7.39 µM'),
  ('CNc1nc2c(C)ccc3[nH]c(N(C)C)nc3c-2n1', '> 100 µM'),
  ('O=[p+]1c2ccccc2[nH]c2ccccc21', '> 100 µM'),
  ('CN(C)c1ccc(/C=N/NC(=O)c2cccc3ccccc23)c(Cl)c1', '> 100 µM'),
  ('COC(=O)C1=COc2c(n(C)c3ccccc23)-c2ccccc21', '> 100 µM'),
  ('CC(=O)/C(=C\c1c(-c2ccccc2)[nH]c2ccccc12)S(=O)(=O)c1ccccc1', '3.44 µM'),
  ('CCOP(C)(=O)/C(Cc1ccc(OC)c(OC)c1)=N\O (configuration not stated)', '> 100 µM'),
  ('CSc1ccc2c(cc1=O)[C@@H](NC(=O)c1ccc([N+](=O)[O-])cc1)CCc1cc(O)c(O)c(O)c1-2', '84.1 µM'),
  ('COc1ccc(C(=O)OC2C(OC3C(O)COC(O[C@H]4C[C@H]5[C@@H]6CC=C7C[C@@H](O)CC[C@]7(C)[C@H]6CC[C@]5(C)[C@H]4[C@H](C)C(=O)CCC(C)C)C3OC(C)=O)OCC(O)C2O)cc1 (some centres not stated)', '0.441 µM');
